B1: CPEB3 Ribozyme (parent)
chain: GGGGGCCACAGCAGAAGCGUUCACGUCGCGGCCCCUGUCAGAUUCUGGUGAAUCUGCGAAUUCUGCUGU

# Variants of: B1
# MEASUREMENT_PROTOCOL: self-cleavage, relative activity (ratio to wild type); higher = more cleavage; co-transcriptional
Attribute: self-cleavage
VALUE_TYPE: self-cleavage

>>> numeric_readout("G58A A59U")
0.592
>>> numeric_readout("A23U U26C")
1.04
>>> numeric_readout("C33G G56C")
0.326
>>> numeric_readout("U21A C27U")
0.162
>>> numeric_readout("G14C C66A")
0.244
>>> numeric_readout("A42G A52U")
0.718
>>> numeric_readout("C6A G50U")
0.727
>>> numeric_readout("G30U C57A")
0.235
>>> numeric_readout("G17U U49A")
0.662
>>> numeric_readout("G31A U43G")
0.524
>>> numeric_readout("C12U G31C")
0.191
>>> numeric_readout("C32G U61A")
0.292
>>> numeric_readout("A51C C57U")
0.338
>>> numeric_readout("C45G C57U")
0.366
>>> numeric_readout("G5C C39U")
0.184
>>> numeric_readout("C34G A40G")
0.631
>>> numeric_readout("U20C G25C")
0.249
>>> numeric_readout("G4A A60G")
0.475
>>> numeric_readout("G3U G30C")
0.0267
>>> numeric_readout("C7A G17U")
0.126
>>> numeric_readout("G30C A40G")
0.462
>>> numeric_readout("G25A U61G")
0.219
